Source: the supplement of paper PMC11451515

test system: NOMO1; assay: cell viability relative to DMSO control; higher = less cytotoxic; details: RPMI 5 mM glucose + 10% FBS; 48 h; 0.0632 µM
Recorded measurements of cell viability, one per entry
State the value with its unit after it.

Solved entries (count: 6):
>  <Compound>
CC[C@]1(O)C[C@@H]2CN(CCc3c([nH]c4ccccc34)[C@@](C(=O)OC)(c3cc4c(cc3OC)N(C)[C@H]3[C@@](O)(C(N)=O)[C@H](O)[C@]5(CC)C=CCN6CC[C@]43[C@@H]65)C2)C1

>  <cell viability>
96.4%

$$$$
>  <Compound>
Nc1nc(Cl)nc2c1ncn2[C@@H]1O[C@H](CO)[C@@H](O)[C@@H]1F

>  <cell viability>
20%

$$$$
>  <Compound>
CCN(c1ccccc1)c1cc(NC)[n+](C)c(C)n1

>  <cell viability>
101%

$$$$
>  <Compound>
O=C(Nc1cccnn1)N1CCC(=Cc2cccc(Oc3ccc(C(F)(F)F)cn3)c2)CC1

>  <cell viability>
90.8%

$$$$
>  <Compound>
COC(=O)\C1=C\CCN(C)C1

>  <cell viability>
85.3%

$$$$
>  <Compound>
COc1cc(N2CCC(N(C)C)CC2)ccc1Nc1ncc(Cl)c(Nc2ccccc2P(C)(C)=O)n1

>  <cell viability>
124%

$$$$

input: Fill in reported cell viability for this entry: `CNC(=O)C1=CC=C(C)C(=C1)N2C(=C/C(=C(/Br)C2=O)OCC3=C(F)C=C(F)C=C3)\C`
output: 127%

input: Fill in reported cell viability for this entry: `O.O.CCN1CCN(C(=O)N[C@H](C(=O)N[C@H]2[C@@H]3SC\C(=C(/N3C2=O)C(O)=O)CSC4=NN=N[N]4C)C5=CC=C(O)C=C5)C(=O)C1=O`
output: 95.2%

input: Fill in reported cell viability for this entry: `O=C1NC(=O)/C(=C/c2ccc(-c3ccc(F)cc3O)o2)S1`
output: 112%

input: Fill in reported cell viability for this entry: Cc1noc(-c2ccc(CSCCC(=O)O)cc2)c1NC(=O)OC(C)c1ccccc1Cl (stereo not given)
output: 109%
